The measured values listed here are drawn from paper PMC8012596.

test system: intact rats; experiment: Effect of hypouricemic agents on endogenous IS pharmacokinetics in intact rats; details: in words
quantity name: Effect on plasma concentration of endogenous IS

- compound: "CCc1oc2ccccc2c1C(=O)c1cc(Br)c(O)c(Br)c1 [Benzbromarone]"
  result: "did not have any effects"
- compound: "Cc1nc(-c2ccc(OCC(C)C)c(C#N)c2)sc1C(=O)O [Febuxostat]"
  result: "significantly increased"
- compound: "O=C(c1cc(Cl)c(O)c(Cl)c1)N1CS(=O)(=O)c2ccccc21 [Dotinurad]"
  result: "did not have any effects"
- compound: "CCCN(CCC)S(=O)(=O)c1ccc(C(=O)O)cc1 [Probenecid]"
  result: "significantly increased"
